As shown below, each of these variants has a reported protein stability index value.
B1: GAGE1 (parent)
chain: RPRRYVQPPEMIGPMRPEQFSDEV

# Variants of: B1
# method: protein stability index of a GFP-peptide fusion (GPS, HEK-293T) (PSI 1-6); higher = more stable;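 further: lentivirally expressed fusions sorted by FACS into six bins by GFP to DsRed ratio, PSI derived from sequencing read proportions per bin multiplied by bin number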
# testContext: c terminus: a fixed tail appended

// worked examples, protein stability index included
P17D; 4.43
R16A; 4.31
S21M; 3.44
P9M; 3.92
P14T; 4.44

State the recorded protein stability index for this entry: `P8W`
3.09

Data provenance is the supplement of paper PMC10567573.
